Biological target: human mGluR2 receptor (Homo sapiens, UniProt Q14416)
Construct: expressed in transfected cells; host or cells: CHO cells
Sequence (Q14416 19-872): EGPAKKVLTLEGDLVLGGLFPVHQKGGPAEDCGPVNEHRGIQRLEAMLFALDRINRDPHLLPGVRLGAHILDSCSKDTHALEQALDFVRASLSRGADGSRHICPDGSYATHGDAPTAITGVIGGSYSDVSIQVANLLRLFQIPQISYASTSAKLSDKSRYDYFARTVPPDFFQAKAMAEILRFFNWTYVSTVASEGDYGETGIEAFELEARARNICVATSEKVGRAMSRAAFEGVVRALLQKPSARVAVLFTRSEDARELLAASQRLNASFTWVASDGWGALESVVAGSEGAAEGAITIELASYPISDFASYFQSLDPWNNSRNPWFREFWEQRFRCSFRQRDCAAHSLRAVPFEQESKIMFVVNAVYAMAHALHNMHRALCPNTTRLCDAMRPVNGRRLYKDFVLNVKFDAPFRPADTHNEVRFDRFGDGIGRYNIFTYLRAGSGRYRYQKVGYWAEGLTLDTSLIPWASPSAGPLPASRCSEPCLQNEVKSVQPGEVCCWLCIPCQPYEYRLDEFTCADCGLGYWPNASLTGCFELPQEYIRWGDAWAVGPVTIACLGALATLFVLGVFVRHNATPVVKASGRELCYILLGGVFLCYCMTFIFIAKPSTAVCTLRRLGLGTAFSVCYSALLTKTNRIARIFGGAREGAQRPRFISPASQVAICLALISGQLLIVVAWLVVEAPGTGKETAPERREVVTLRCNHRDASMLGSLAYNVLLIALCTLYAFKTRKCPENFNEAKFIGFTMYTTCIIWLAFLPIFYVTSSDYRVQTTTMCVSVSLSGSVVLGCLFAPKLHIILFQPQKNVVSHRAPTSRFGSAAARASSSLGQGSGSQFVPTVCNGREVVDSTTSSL
Test: [35S]GTPγS binding assay (PAM assay) using membranes from cells transfected with the human mGluR2 receptor
Type: biochemical
Settings: membranes of CHO cells with human mGluR2; glutamate at predetermined EC25 concentration; averages of duplicate values of 11-concentration response curves; read-out: GTPγS - hR2 PAM pEC50 (converted)
Each entry below carries its reported EC50.
Number in nM, nothing else.

Consider the reported EC50 for these molecules:
N#Cc1c(N2CCC([C@H]3CC[C@H](O)CC3)CC2)ccn2c(CC(F)(F)F)cnc12 [Example 122] ... 550
N#Cc1c(-c2ccc(N3CCC(O)CC3)cc2)ccn2c(CC(F)(F)F)cnc12 [Example 111] ... 1050
CC1(O)CCC(Nc2ccc(-c3ccn4c(CC(F)(F)F)cnc4c3Cl)cc2Cl)CC1 (centres unmarked) [Example 98] ... 490
FC(F)(F)Cc1cnc2c(Cl)c(CN3CCC(F)(c4ccccc4)CC3)ccn12 [Example 35] ... 603
N#Cc1c(-c2ccc(Oc3ccc(F)cc3)cc2)ccn2c(CC(F)(F)F)cnc12 [Example 74] ... 170

Q) What value of EC50 has been recorded for this entry: COc1c(F)cccc1C1CCN(c2ccn3c(CC(F)(F)F)cnc3c2C#N)CC1 [Example 61]
A) 37.2

Q) What value of EC50 has been recorded for this entry: Fc1ccc(N2CCN(Cc3ccn4c(CC(F)(F)F)cnc4c3Cl)CC2)c(F)c1 [Example 37]
A) 3020

Q) What value of EC50 has been recorded for this entry: CC(C)(O)c1ccc(C2CCN(c3ccn4c(CC(F)(F)F)cnc4c3Cl)CC2)cc1 [Example 63]
A) 389

====

Target: human mGluR2 receptor (Homo sapiens)
Construct: expressed in transfected cells; host or cells: CHO cells
Experiment: [35S]GTPγS binding assay (PAM assay) using membranes from cells transfected with the human mGluR2 receptor
Type: biochemical
Conditions: membranes of CHO cells with human mGluR2; glutamate at predetermined EC25 concentration; averages of duplicate values of 11-concentration response curves; read-out: GTPγS - hR2 PAM pEC50 (converted)
Experimental: The [^35S]GTPγS binding assay is a functional membrane-based assay used to study G-protein coupled receptor (GPCR) function whereby incorporation of a non-hydrolysable form of GTP, [^35S]GTPγS (guanosine 5′-triphosphate, labelled with […] ^35S), is measured. CHO-cells were cultured to pre-confluence and stimulated with 5 mM butyrate for 24 hours, prior to washing in PBS, and then collection by scraping in homogenisation buffer (50 mM Tris-HCl buffer, pH 7.4, 4° C.). […]
QUANTITY_MEASURED: log10 of EC50 (log10 of the value in nM)
Each number you see is log10 of EC50, and the unit inside the log is nM.

Consider the reported log10 of EC50 for these compounds:
FC(F)(F)Cc1cnc2c(Cl)c(N3CCC(c4ccccc4)CC3)ccn12 [Example 51] ... 2.20
N#Cc1c(-c2ccc(Oc3cccc(F)c3)cc2)ccn2c(CC(F)(F)F)cnc12 [Example 78] ... 2.34
C[C@]1(O)CC[C@@H](Nc2ccc(-c3ccn4c(CC(F)(F)F)cnc4c3C#N)cc2Cl)CC1 [Example 89] ... 2.44
FC(F)(F)Cc1cnc2c(Cl)c(-c3ccc(NC4CCOCC4)c(Cl)c3)ccn12 [Example 99] ... 2.80
N#Cc1c(-c2ccc(N[C@H]3CC[C@H](O)CC3)cc2)ccn2c(CC(F)(F)F)cnc12 [Example 91] ... 3.05

Q) What value of log10 of EC50 has been recorded for this entry: CC(C)Oc1ccc(-c2ccn3c(CC(F)(F)F)cnc3c2C#N)cc1Cl [Example 87]
A) 2.49

Q) What value of log10 of EC50 has been recorded for this entry: CC(C)(O)c1ccccc1C1CCN(c2ccn3c(CC(F)(F)F)cnc3c2Cl)CC1 [Example 65]
A) 2.25

Q) What value of log10 of EC50 has been recorded for this entry: CCCc1cnc2c(C#N)c(N3CCC(c4cccc(C(F)(F)F)c4)CC3)ccn12 [Example 5]
A) 2.03
